src = patent US20210388087A1

Target: T1, Human CD3eg linker (human)
T1 construct: Single chain: epsilon and gamma subunits of human CD3 joined by a 29-mer linker, Flag-tag at the C-terminus; also called recombinant human CD3
T1 chain: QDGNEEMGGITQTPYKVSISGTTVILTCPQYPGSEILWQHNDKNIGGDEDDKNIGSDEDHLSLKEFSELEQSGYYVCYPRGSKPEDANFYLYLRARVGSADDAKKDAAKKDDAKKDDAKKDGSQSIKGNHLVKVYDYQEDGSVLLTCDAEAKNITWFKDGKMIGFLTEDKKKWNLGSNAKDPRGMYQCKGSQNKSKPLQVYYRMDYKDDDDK
Assay: Biacore SPR, vs template H183/L072
Exercise: for every item that follows, state its recorded fold change of affinity.
Express the result in fold but write the number alone.

# fold change of affinity (binder: H183/L072 VH Y59G (antibody, name in Kabat numbering, V domains shown) VH: QVQLVESGGGLVQPGRSLRLSCAASGFTFSNAWMHWVRQAPGKGLEWVAQIKDKGNAYAAYGAPSVKGRFTISRDDSKNSIYLQMNSLKTEDTAVYYCHYVHYASASTVLPAFGVDAWGQGTTVTVSS VL: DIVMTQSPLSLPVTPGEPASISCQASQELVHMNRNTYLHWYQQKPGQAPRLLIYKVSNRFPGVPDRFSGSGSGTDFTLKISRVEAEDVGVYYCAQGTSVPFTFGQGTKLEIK ) is 1.1

# fold change of affinity (binder: H183/L072 VH A54E (antibody, name in Kabat numbering, V domains shown) VH: QVQLVESGGGLVQPGRSLRLSCAASGFTFSNAWMHWVRQAPGKGLEWVAQIKDKGNEYAAYYAPSVKGRFTISRDDSKNSIYLQMNSLKTEDTAVYYCHYVHYASASTVLPAFGVDAWGQGTTVTVSS VL: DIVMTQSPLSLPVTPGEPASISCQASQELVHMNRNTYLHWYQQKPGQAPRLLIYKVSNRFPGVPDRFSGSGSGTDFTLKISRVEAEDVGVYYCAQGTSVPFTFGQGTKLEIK ) is 1

# fold change of affinity (binder: H183/L072 VH A56L (antibody, name in Kabat numbering, V domains shown) VH: QVQLVESGGGLVQPGRSLRLSCAASGFTFSNAWMHWVRQAPGKGLEWVAQIKDKGNAYLAYYAPSVKGRFTISRDDSKNSIYLQMNSLKTEDTAVYYCHYVHYASASTVLPAFGVDAWGQGTTVTVSS VL: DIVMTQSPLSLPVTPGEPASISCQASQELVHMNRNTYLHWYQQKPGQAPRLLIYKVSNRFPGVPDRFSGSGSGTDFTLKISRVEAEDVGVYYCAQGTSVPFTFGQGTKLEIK ) is 0.7
